# measurement target: γ-secretase (Homo sapiens, UniProt P49768)
# Construct: The endogenous γ-secretase present in the isolated membranes; endogenous in cells
# method notes: Isolated membrane γ-secretase assay, time-resolved fluorescence detection of Aβ
# assay setup: isolated membranes, about 90 minutes at 37 degrees C; read-out: Activity (IC50), Inhibition of β-Amyloid Peptide
assay metric: IC50

Tell me the measured IC50 of C=CCC(O)[C@@H](C)N(c1cc(Cl)ccc1Cl)S(=O)(=O)c1ccc(Cl)cc1 (single isomer, unassigned) [Example 5A] , please.
50 to 200 nM

Tell me the measured IC50 of CCCC(O)[C@@H](C)N(c1cc(Cl)ccc1Cl)S(=O)(=O)c1ccc(Cl)cc1 (single isomer, unassigned) [Example 6B] , please.
200 to 5000 nM

Tell me the measured IC50 of C[C@H](CC(O)c1ccccc1)N(c1cc(Cl)ccc1Cl)S(=O)(=O)c1ccc(Cl)cc1 (mixture of isomers) , please.
50 to 200 nM

---

Please go through the items and note down their pIC50.
# measurement target: γ-secretase (Homo sapiens, UniProt P49768)
# Construct: The endogenous γ-secretase present in the isolated membranes; endogenous in cells
# method notes: Isolated membrane γ-secretase assay, time-resolved fluorescence detection of Aβ
# assay setup: isolated membranes, about 90 minutes at 37 degrees C; read-out: Activity (IC50), Inhibition of β-Amyloid Peptide
pIC50: −log10 of the molar value.

Tell me the measured pIC50 of COc1ccc(C(O)[C@@H](C)N(c2cc(Cl)ccc2F)S(=O)(=O)c2ccc(Cl)cc2)cc1 (mixture of isomers) [Example 22] , please.
5.30 to 6.70

Tell me the measured pIC50 of CC(C)CC(O)[C@@H](C)N(c1cc(Cl)ccc1Cl)S(=O)(=O)c1ccc(Cl)cc1 (mixture of isomers) [Example 11] , please.
5.30 to 6.70

Tell me the measured pIC50 of C=CCCC(O)C(C)N(c1cc(Cl)ccc1F)S(=O)(=O)c1ccc(Cl)cc1 (single isomer, unassigned) [Example 20B] , please.
5.30 to 6.70

Tell me the measured pIC50 of C[C@H](C(O)CC(=O)O)N(c1cc(Cl)ccc1F)S(=O)(=O)c1ccc(Cl)cc1 (mixture of isomers) [Example 24] , please.
6.70 to 7.30

---

# measurement target: γ-secretase (Homo sapiens, UniProt P49768)
# Construct: The endogenous γ-secretase present in the isolated membranes; endogenous in cells
# method notes: Isolated membrane γ-secretase assay, time-resolved fluorescence detection of Aβ
# assay setup: isolated membranes, about 90 minutes at 37 degrees C; read-out: Activity (IC50), Inhibition of β-Amyloid Peptide
pIC50: −log10 of the molar value.
assay metric: pIC50

Tell me the measured pIC50 of C=CCC(O)[C@@H](C)N(c1cc(Cl)ccc1Cl)S(=O)(=O)c1ccc(Cl)cc1 (single isomer, unassigned) [Example 5B] , please.
5.30 to 6.70

Tell me the measured pIC50 of C=CCCC(O)C[C@@H](C)N(c1cc(Cl)ccc1Cl)S(=O)(=O)c1ccc(Cl)cc1 (mixture of isomers) , please.
6.70 to 7.30

Tell me the measured pIC50 of C[C@H](C(O)C1CCCCC1)N(c1cc(Cl)ccc1Cl)S(=O)(=O)c1ccc(Cl)cc1 (mixture of isomers) , please.
5.30 to 6.70

Tell me the measured pIC50 of C[C@H](C(O)c1ccccc1)N(c1cc(Cl)ccc1Cl)S(=O)(=O)c1ccc(Cl)cc1 (mixture of isomers) , please.
5.30 to 6.70

Tell me the measured pIC50 of C=CCCC(O)C(C)N(c1cc(Cl)ccc1Cl)S(=O)(=O)c1ccc(Cl)cc1 (single isomer, unassigned) [Example 18B] , please.
5.30 to 6.70

Tell me the measured pIC50 of CCCC(O)[C@@H](C)N(c1cc(Cl)ccc1Cl)S(=O)(=O)c1ccc(Cl)cc1 (single isomer, unassigned) [Example 6A] , please.
6.70 to 7.30

---

# measurement target: γ-secretase (Homo sapiens)
# Construct: The endogenous γ-secretase present in the isolated membranes; endogenous in cells
# method notes: Isolated membrane γ-secretase assay, time-resolved fluorescence detection of Aβ
# assay setup: isolated membranes, about 90 minutes at 37 degrees C; read-out: Activity (IC50), Inhibition of β-Amyloid Peptide
assay metric: IC50

Tell me the measured IC50 of CC(C)C(O)[C@@H](C)N(c1cc(Cl)ccc1Cl)S(=O)(=O)c1ccc(Cl)cc1 (mixture of isomers) [Example 10] , please.
200 to 5000 nM

Tell me the measured IC50 of CCCC(O)[C@@H](C)N(c1cc(Cl)ccc1F)S(=O)(=O)c1ccc(Cl)cc1 (single isomer, unassigned) [Example 27A] , please.
< 50 nM

Tell me the measured IC50 of CC(C)CC(O)C[C@@H](C)N(c1cc(Cl)ccc1Cl)S(=O)(=O)c1ccc(Cl)cc1 (mixture of isomers) [Example 28] , please.
50 to 200 nM

Tell me the measured IC50 of C#CCC(O)[C@@H](C)N(c1cc(Cl)ccc1F)S(=O)(=O)c1ccc(Cl)cc1 (single isomer, unassigned) [Example 21B] , please.
< 50 nM

Tell me the measured IC50 of CC(C(O)CCc1ccccc1)N(c1cc(Cl)ccc1Cl)S(=O)(=O)c1ccc(Cl)cc1 (single isomer, unassigned) [Example 17A] , please.
200 to 5000 nM

Tell me the measured IC50 of C=CCCC(O)C(C)N(c1cc(Cl)ccc1Cl)S(=O)(=O)c1ccc(Cl)cc1 (single isomer, unassigned) [Example 18A] , please.
50 to 200 nM

Tell me the measured IC50 of C=CCC(O)[C@@H](C)N(c1cc(Cl)ccc1F)S(=O)(=O)c1ccc(Cl)cc1 (single isomer, unassigned) [Example 23A] , please.
< 50 nM
